- Test system: A549 human lung adenocarcinoma cells
- assay-info: A549 cell cytotoxicity in the dark and after irradiation
- Assay type: cell-based
- measurement-parameters: Homo sapiens, A549, read-out: EC50 (ejected ligand cytotoxicity)
assay-metric: EC50

// query Field request: EC50 | item: Cc1cccc(-c2cccc(C)n2)n1 [dmbpy, 6,6′-dimethyl-2,2′-bipyridine]
// result 80 µM
